Here the recorded pEC50 is given for each entry.
# Tested on: HT-29 human colon cells
# ASSAY DETAILS: Tumor cytotoxicity assay, resazurin fluorescence, 48 h (Example 6)
# Type: cell-based
# MEASUREMENT CONTEXT: Homo sapiens; Table 8, electron-donating group; proliferation of HT-29 cells; read-out: EC50
pEC50: −log10 of the molar value.

>  <TEST SMILES>
COc1ccc(/C=c2\[nH]c(=O)/c(=C/c3nc[nH]c3C(C)(C)C)[nH]c2=O)c(O)c1

>  <CENSOR SYMBOL>
<

>  <pEC50>
4.70

$$$$
>  <TEST SMILES>
COc1cccc(/C=c2\[nH]c(=O)/c(=C/c3nc[nH]c3C(C)(C)C)[nH]c2=O)c1O

>  <CENSOR SYMBOL>
=

>  <pEC50>
5.23

$$$$
>  <TEST SMILES>
CC(C)(C)c1[nH]cnc1/C=c1\[nH]c(=O)/c(=C/c2ccc3c(c2)OCO3)[nH]c1=O

>  <CENSOR SYMBOL>
=

>  <pEC50>
7.09

$$$$
>  <TEST SMILES>
COc1ccc(O)c(/C=c2\[nH]c(=O)/c(=C/c3nc[nH]c3C(C)(C)C)[nH]c2=O)c1

>  <CENSOR SYMBOL>
<

>  <pEC50>
4.70

$$$$
>  <TEST SMILES>
COc1ccc(/C=c2\[nH]c(=O)/c(=C/c3nc[nH]c3C(C)(C)C)[nH]c2=O)cc1O

>  <CENSOR SYMBOL>
<

>  <pEC50>
4.70

$$$$
>  <TEST SMILES>
CC(C)(C)c1[nH]cnc1/C=c1\[nH]c(=O)/c(=C/c2cccc3c2OCO3)[nH]c1=O

>  <CENSOR SYMBOL>
=

>  <pEC50>
6.32

$$$$

====

# Tested on: PC-3 prostatic adenocarcinoma cells
# ASSAY DETAILS: Tumor cytotoxicity assay, resazurin fluorescence, 48 h (Example 6)
# Type: cell-based, human
# MEASUREMENT CONTEXT: Homo sapiens, read-out: EC50 (nM) PC-3

>  <TEST SMILES>
CC(C)(C)c1[nH]cnc1/C=c1\[nH]c(=O)/c(=C/c2ccccc2)[nH]c1=O

>  <U>
nM

>  <EC50>
1

$$$$

====

# System: HT-29 cells
# ASSAY DETAILS: Additional cytotoxicity assays, resazurin (Table 3.1)
# Type: cell-based, human
# MEASUREMENT CONTEXT: Homo sapiens, HT-29; Table 3.1; read-out: EC50 (M) Mean
READOUT LABEL: EC50 (M)

>  <COMPOUND>
COc1cccc(/C=c2\[nH]c(=O)/c(=C/c3nc[nH]c3C(C)(C)C)[nH]c2=O)c1O [Compound 2373, tBu-delta-PLH-2-OH-3-OMe (o-vanillin)]

>  <MEASURED RESULT>
5.36e-06

$$$$
>  <COMPOUND>
C=CC(C)(C)c1[nH]cnc1/C=c1\[nH]c(=O)/c(=C\c2ccc(OC)cc2)[nH]c1=O [Compound 2357]

>  <MEASURED RESULT>
8.25e-06

$$$$
>  <COMPOUND>
CC(C)(C)c1[nH]cnc1/C=c1\[nH]c(=O)/c(=C/c2cccc(OC(F)(F)F)c2)[nH]c1=O [Compound 2430, tBu-delta-PLH-m-OCF3]

>  <MEASURED RESULT>
1.43e-08

$$$$
